- measurement_description: AUC (0 to t) in Sprague-Dawley rat at 1 mg/kg, po measured for 24 hrs by UPLC/MS/MS analysis
- Type: ADME, organism-based
- study_conditions: in vivo
experimental_readout: AUC(0-t) at 24 h (ng·h/mL)
Entry rule: numbers only, all in ng·h/mL.

Input line: State its AUC(0-t) at 24 h for this compound: Cl.c1ccc2c(c1)nnn2CCCCN1CCN(c2nsc3ccccc23)CC1
Output line: 51.7

---

- measurement_description: Tmax in male Sprague-Dawley rat at 30 mg/kg, po measured on day 1 by UP/LC/MS/MS analysis
- Assay type: ADME, organism-based
- study_conditions: in vivo, time 1 day
experimental_readout: Tmax (h)
Kindly provide the numeric value in h only, without the unit symbol.

Input line: Write down Tmax measured for item Cl.c1ccc2c(c1)nnn2CCCCN1CCN(c2nsc3ccccc23)CC1
Output line: 1

---

- measurement_description: AUC (0 to t) in male Sprague-Dawley rat at 10 mg/kg, po measured on day 1 by UP/LC/MS/MS analysis
- Assay type: ADME, organism-based
- study_conditions: in vivo, time 1 day
experimental_readout: AUC(0-t) at 24 h (ng·h/mL)
Provide the reading as a plain figure in ng·h/mL.

Input line: Recall and state the measured AUC(0-t) at 24 h for Cl.c1ccc2c(c1)nnn2CCCCN1CCN(c2nsc3ccccc23)CC1 .
Output line: 44.5

---

- measurement_description: Half life in Sprague-Dawley rat at 3 mg/kg, po measured for 24 hrs by UPLC/MS/MS analysis
- Format: ADME, organism-based
- study_conditions: in vivo
experimental_readout: half-life (h)
# value in h; strip the unit string

Input line: Please give measured half-life of the following entry: Cl.c1ccc2c(c1)nnn2CCCCN1CCN(c2nsc3ccccc23)CC1
Output line: 2.15

---

compounds and their reported inhibition
- test_target: Alpha-1A adrenergic receptor (Homo sapiens)
- measurement_description: Displacement of [3H]prazosin from recombinant human alpha 1A adrenoceptor extracted from CHO cell membrane at 1 nM incubated for 60 mins by radioligand binding assay relative to control
- Assay type: cell membranes
Express it in %; write the number only.

Clc1cccc(N2CCN(CCCCn3cnc4ccccc43)CC2)c1Cl = 11.7

Input line: Return the recorded inhibition value; entry: COc1ccccc1N1CCN(CCCCn2cnc3ccccc32)CC1
Output line: -0.88

Input line: Please supply the value of reported inhibition for the item COc1cccc(N2CCN(CCCCn3cnc4ccccc43)CC2)c1
Output line: -1.06

Input line: Name the recorded inhibition of the item Fc1ccc2ncn(CCCCN3CCN(c4cccc(C(F)(F)F)c4)CC3)c2c1 in your answer.
Output line: -7.67

Input line: Complete the entry with inhibition for c1ccc(N2CCN(CCCCn3nnc4ccccc43)CC2)cc1
Output line: -9.51

Input line: Give the value of inhibition reported for the following: Clc1cccc(N2CCN(CCCCn3nnc4ccccc43)CC2)c1
Output line: 5.9

Input line: Dear colleague, please send me the reported inhibition for FC(F)(F)c1cccc(N2CCN(CCCn3nc4ccccc4n3)CC2)c1 when you can.
Output line: -8.07

---

- test_target: 5-hydroxytryptamine receptor 2A (Homo sapiens)
- Sequence (P28223 whole entry): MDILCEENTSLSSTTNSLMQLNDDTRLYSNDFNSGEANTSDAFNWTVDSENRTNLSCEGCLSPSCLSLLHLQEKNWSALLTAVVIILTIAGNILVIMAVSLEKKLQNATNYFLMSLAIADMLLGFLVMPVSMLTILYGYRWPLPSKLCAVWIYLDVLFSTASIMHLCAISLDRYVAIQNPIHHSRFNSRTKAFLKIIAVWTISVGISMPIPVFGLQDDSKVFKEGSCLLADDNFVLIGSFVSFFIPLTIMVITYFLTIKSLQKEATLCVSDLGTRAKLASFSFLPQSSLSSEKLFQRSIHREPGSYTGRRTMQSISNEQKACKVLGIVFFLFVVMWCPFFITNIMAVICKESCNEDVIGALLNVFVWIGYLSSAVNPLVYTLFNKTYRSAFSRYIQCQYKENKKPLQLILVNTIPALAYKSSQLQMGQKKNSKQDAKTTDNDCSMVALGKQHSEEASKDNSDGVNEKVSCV
- measurement_description: Displacement of [3H]Ketanserin from recombinant human 5-HT2A receptor extracted from CHO cell membrane incubated for 60 mins by radioligand binding assay
experimental_readout: pIC50
Schema: pIC50 number; meaning minus log10 of the concentration expressed in molar units.

Input line: Return value of pIC50 for input Cl.c1ccc2c(c1)nnn2CCCCN1CCN(c2nsc3ccccc23)CC1 , no commentary.
Output line: 9.57
